target: UniProt P31648; assay: Inhibition of mouse GAT1 expressed in HEK293 cells assessed as decrease in [3H]GABA uptake preincubated for 25 mins followed by [3H]GABA addition measured after 4 mins by liquid scintillation counter method

smiles.string	unit.annotation	IC50
COc1ccc(C2(OCCCCCn3ccnc3/C=C/C(=O)O)c3ccccc3-c3ccccc32)cc1	µM	12.6
COc1ccc(C2(OCCOCCn3ccnc3CCC(=O)O)c3ccccc3-c3ccccc32)cc1	µM	37.2
COc1ccc(C2(OCCCCCn3cncc3CC(=O)O)c3ccccc3-c3ccccc32)cc1	µM	79.4
O=C(O)CCc1nccn1CCC=C(c1ccccc1)c1ccccc1	µM	74.1
COc1ccc(C2(/C=C/COCCn3ccnc3CCC(=O)O)c3ccccc3-c3ccccc32)cc1	µM	26.3

----------
molecular target: Sodium- and chloride-dependent GABA transporter 1 (Mus musculus); experiment: Inhibition of mouse GAT1 expressed in HEK293 cells assessed as decrease in [3H]GABA uptake preincubated for 25 mins followed by [3H]GABA addition measured after 4 mins by liquid scintillation counter method; assay type: cell-based
Below, each entry is listed alongside its reported IC50.

smiles.string	tgt	IC50
COc1ccc(C2(OCCCn3ccnc3CCC(=O)O)c3ccccc3-c3ccccc32)cc1	Sodium- and chloride-dependent GABA transporter 1 (Mus musculus)	100 µM
COc1ccc(C2(OCCCCn3ccnc3CCC(=O)O)c3ccccc3-c3ccccc32)cc1	Sodium- and chloride-dependent GABA transporter 1 (Mus musculus)	141 µM
COc1ccc(C2(/C=C/Cn3cncc3CC(=O)O)c3ccccc3-c3ccccc32)cc1	Sodium- and chloride-dependent GABA transporter 1 (Mus musculus)	126 µM
COc1ccc(C2(OCCCCCn3ccnc3CCC(=O)O)c3ccccc3-c3ccccc32)cc1	Sodium- and chloride-dependent GABA transporter 1 (Mus musculus)	11.7 µM
COc1ccc(C2(OC/C=C\Cn3ccnc3CCC(=O)O)c3ccccc3-c3ccccc32)cc1	Sodium- and chloride-dependent GABA transporter 1 (Mus musculus)	70.8 µM

----------
Below, each entry is listed alongside its reported inhibition.
target: GABA transporter 3 (Mus musculus); experiment: Inhibition of mouse GAT3 expressed in HEK293 cells assessed as decrease in [3H]GABA uptake at 100 uM preincubated for 25 mins followed by [3H]GABA addition measured after 4 mins by liquid scintillation counter method; assay type: cell-based

smiles.string	inhibition
COc1ccc(C2(OC/C=C/Cn3ccnc3CCC(=O)O)c3ccccc3-c3ccccc32)cc1	43.9%
COc1ccc(C2(OCCCn3cnc(CC(=O)O)c3)c3ccccc3-c3ccccc32)cc1	51.4%
COc1ccc(C2(OCCCn3ccnc3CCC(=O)O)c3ccccc3-c3ccccc32)cc1	48.6%
COc1ccc(C2(OCCCCn3cncc3CC(=O)O)c3ccccc3-c3ccccc32)cc1	41.7%
COc1ccc(C2(OCCn3ccnc3CCC(=O)O)c3ccccc3-c3ccccc32)cc1	43.2%
Cc1ccsc1C(=CCCN1CCC[C@@H](C(=O)O)C1)c1sccc1C	64%
COc1ccc(C2(OCCCCCn3cncc3CC(=O)O)c3ccccc3-c3ccccc32)cc1	68%
COc1ccc(C2(OCCn3cncc3CC(=O)O)c3ccccc3-c3ccccc32)cc1	50.8%
O=C(O)CCc1nccn1CCC=C(c1ccccc1)c1ccccc1	48.1%
COc1ccc(C2(OCCn3cnc(CC(=O)O)c3)c3ccccc3-c3ccccc32)cc1	46.7%

----------
target: GABA transporter 2 (Mus musculus) (UniProt P31651); assay: Inhibition of mouse GAT2 expressed in HEK293 cells assessed as decrease in [3H]GABA uptake at 100 uM preincubated for 25 mins followed by [3H]GABA addition measured after 10 mins by liquid scintillation counter method; assay type: cell-based
Sequence (P31651 whole entry): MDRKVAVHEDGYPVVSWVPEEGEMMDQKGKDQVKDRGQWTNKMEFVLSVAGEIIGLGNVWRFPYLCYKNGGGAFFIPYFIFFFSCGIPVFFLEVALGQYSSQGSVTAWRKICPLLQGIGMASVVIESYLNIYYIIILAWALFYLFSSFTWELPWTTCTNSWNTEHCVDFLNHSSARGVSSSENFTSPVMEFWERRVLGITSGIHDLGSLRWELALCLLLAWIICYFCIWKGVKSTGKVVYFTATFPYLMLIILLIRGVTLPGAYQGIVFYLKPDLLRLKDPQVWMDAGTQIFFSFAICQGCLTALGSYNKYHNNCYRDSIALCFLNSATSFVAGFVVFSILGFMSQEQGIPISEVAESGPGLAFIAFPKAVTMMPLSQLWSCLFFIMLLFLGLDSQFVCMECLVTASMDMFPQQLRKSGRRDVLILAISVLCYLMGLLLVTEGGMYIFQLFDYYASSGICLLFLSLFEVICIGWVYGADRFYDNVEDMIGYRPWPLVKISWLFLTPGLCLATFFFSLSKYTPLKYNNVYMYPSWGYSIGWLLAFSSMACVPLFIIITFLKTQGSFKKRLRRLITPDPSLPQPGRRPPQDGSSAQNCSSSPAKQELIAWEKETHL
experimental.endpoint: inhibition (%)

molecule	readout.number
COc1ccc(C2(OCCCn3ccnc3CCC(=O)O)c3ccccc3-c3ccccc32)cc1	31.2
COc1ccc(C2(OCCOCCn3ccnc3CCC(=O)O)c3ccccc3-c3ccccc32)cc1	48.3
COc1ccc(C2(/C=C/Cn3cnc(CC(=O)O)c3)c3ccccc3-c3ccccc32)cc1	24.2
COc1ccc(C2(OCCN3CCCC(C(=O)O)C3)c3ccccc3-c3ccccc32)cc1 (stereo not given)	66.3
COc1ccc(C2(OCCn3cncc3CC(=O)O)c3ccccc3-c3ccccc32)cc1	57.9

----------
molecular target: GABA transporter 4 (Mus musculus); experiment: Inhibition of mouse GAT4 expressed in HEK293 cells assessed as decrease in [3H]GABA uptake at 100 uM preincubated for 25 mins followed by [3H]GABA addition measured after 4 mins by liquid scintillation counter method; format: cell-based

smiles.string	unit.annotation	inhibition
COc1ccc(C2(OCCOCCn3ccnc3CCC(=O)O)c3ccccc3-c3ccccc32)cc1	%	50.7
COc1ccc(C2(OCCCn3cnc(CC(=O)O)c3)c3ccccc3-c3ccccc32)cc1	%	61.4
COc1ccc(C2(OC/C=C/Cn3ccnc3CCC(=O)O)c3ccccc3-c3ccccc32)cc1	%	61.4
Cc1ccsc1C(=CCCN1CCC[C@@H](C(=O)O)C1)c1sccc1C	%	73
COc1ccc(C2(OCCCCn3cncc3CC(=O)O)c3ccccc3-c3ccccc32)cc1	%	59

----------
Below, each entry is listed alongside its reported IC50.
Target: GABA transporter 3 (Mus musculus, UniProt P31649)
Sequence (P31649 whole entry): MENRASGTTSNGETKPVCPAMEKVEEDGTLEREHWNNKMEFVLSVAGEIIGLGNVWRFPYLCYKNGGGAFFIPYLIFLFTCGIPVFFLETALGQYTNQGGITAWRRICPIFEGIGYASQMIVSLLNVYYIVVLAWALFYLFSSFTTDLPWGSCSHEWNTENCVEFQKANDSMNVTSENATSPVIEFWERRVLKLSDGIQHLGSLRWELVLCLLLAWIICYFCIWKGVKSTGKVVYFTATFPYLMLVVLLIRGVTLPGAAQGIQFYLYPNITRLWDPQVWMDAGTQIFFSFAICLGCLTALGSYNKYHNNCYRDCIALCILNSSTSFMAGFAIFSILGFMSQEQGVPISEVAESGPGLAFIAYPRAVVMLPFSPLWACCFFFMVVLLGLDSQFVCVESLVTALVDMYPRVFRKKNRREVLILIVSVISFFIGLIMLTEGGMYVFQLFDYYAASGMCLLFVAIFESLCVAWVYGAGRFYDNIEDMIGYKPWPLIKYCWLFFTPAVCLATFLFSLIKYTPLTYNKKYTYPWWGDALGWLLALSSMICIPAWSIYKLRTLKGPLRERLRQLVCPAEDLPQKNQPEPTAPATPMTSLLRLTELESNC
Assay: Inhibition of mouse GAT3 expressed in HEK293 cells assessed as decrease in [3H]GABA uptake preincubated for 25 mins followed by [3H]GABA addition measured after 4 mins by liquid scintillation counter method

smiles.string	IC50 / µM
COc1ccc(C2(/C=C/Cn3cncc3CC(=O)O)c3ccccc3-c3ccccc32)cc1	79.4
COc1ccc(C2(/C=C/COCCn3ccnc3CCC(=O)O)c3ccccc3-c3ccccc32)cc1	24.5
COc1ccc(C2(OCCCCCn3cnc(CC(=O)O)c3)c3ccccc3-c3ccccc32)cc1	97.7
O=C(O)CCc1ncc[nH]1	28.8
COc1ccc(C2(OCCCCn3ccnc3CCC(=O)O)c3ccccc3-c3ccccc32)cc1	87.1

----------
biological target: Sodium- and chloride-dependent betaine transporter (Homo sapiens); assay: Inhibition of human BGT-1 expressed in thymidine kinase deficient mouse LM cells assessed as decrease in [3H]GABA uptake after 10 mins by scintillation counter method
Sequence (P48065 whole entry): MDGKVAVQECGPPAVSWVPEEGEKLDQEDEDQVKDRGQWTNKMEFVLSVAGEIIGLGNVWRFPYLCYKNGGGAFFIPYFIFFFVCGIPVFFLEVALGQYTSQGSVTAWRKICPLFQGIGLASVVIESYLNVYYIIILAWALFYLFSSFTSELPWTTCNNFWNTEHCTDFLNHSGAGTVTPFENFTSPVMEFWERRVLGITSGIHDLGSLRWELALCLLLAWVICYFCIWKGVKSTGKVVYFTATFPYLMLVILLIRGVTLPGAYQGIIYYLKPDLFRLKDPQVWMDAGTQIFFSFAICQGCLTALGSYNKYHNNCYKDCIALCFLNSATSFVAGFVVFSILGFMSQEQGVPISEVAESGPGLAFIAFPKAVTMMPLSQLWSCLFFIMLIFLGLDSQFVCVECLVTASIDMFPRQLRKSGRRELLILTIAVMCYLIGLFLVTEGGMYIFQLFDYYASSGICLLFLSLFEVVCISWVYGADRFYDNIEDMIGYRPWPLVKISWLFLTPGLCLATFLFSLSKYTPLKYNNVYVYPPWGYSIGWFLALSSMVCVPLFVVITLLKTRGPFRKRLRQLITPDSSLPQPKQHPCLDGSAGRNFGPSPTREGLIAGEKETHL
experimental.endpoint: IC50 (µM)

compound	readout.number
COc1ccc(C2(OCCN3CCCC(C(=O)O)C3)c3ccccc3-c3ccccc32)cc1 (stereo unspecified)	27

----------
target: GABA transporter 3 (Mus musculus, UniProt P31649); experiment: Inhibition of mouse GAT3 expressed in HEK293 cells assessed as decrease in [3H]GABA uptake preincubated for 25 mins followed by [3H]GABA addition measured after 4 mins by liquid scintillation counter method
IC50 under 40 µM gets TRUE, anything at or over 40 µM gets FALSE.

compound	tgt	class.label
COc1ccc(C2(OCCCn3cncc3CC(=O)O)c3ccccc3-c3ccccc32)cc1	GABA transporter 3 (Mus musculus, UniProt P31649)	FALSE
COc1ccc(C2(OCCCCCn3ccnc3CCC(=O)O)c3ccccc3-c3ccccc32)cc1	GABA transporter 3 (Mus musculus, UniProt P31649)	TRUE
COc1ccc(C2(OC/C=C\Cn3ccnc3CCC(=O)O)c3ccccc3-c3ccccc32)cc1	GABA transporter 3 (Mus musculus, UniProt P31649)	TRUE
COc1ccc(C2(/C=C/Cn3ccnc3CCC(=O)O)c3ccccc3-c3ccccc32)cc1	GABA transporter 3 (Mus musculus, UniProt P31649)	TRUE
COc1ccc(C2(OCCOCCn3ccnc3CCC(=O)O)c3ccccc3-c3ccccc32)cc1	GABA transporter 3 (Mus musculus, UniProt P31649)	TRUE
COc1ccc(C2(/C=C/Cn3cnc(CC(=O)O)c3)c3ccccc3-c3ccccc32)cc1	GABA transporter 3 (Mus musculus, UniProt P31649)	FALSE
COc1ccc(C2(OCCN3CCCC(C(=O)O)C3)c3ccccc3-c3ccccc32)cc1 (stereo not drawn)	GABA transporter 3 (Mus musculus, UniProt P31649)	FALSE
